Data origin: the supplement of paper PMC8728848

- tested_on: Fuc(a1-2)Gal(b1-3)GlcNAc(b1-3)[Gal(b1-4)GlcNAc(b1-6)]Gal(b1-4)Glc
- experiment: glycan array binding signal (z-score within array); higher = stronger binding
- condition_info: glycan notation: IUPAC condensed, linker removed
This excerpt belongs to a sample that is enriched for the strongest signals.
Kindly supply the reported glycan array binding signal (z-score) values for the records listed here.
One number for each entry.

{"binder": "MFG-E8 (Homo sapiens), Q08431 (protein) MPRPRLLAALCGALLCAPSLLVALDICSKNPCHNGGLCEEISQEVRGDVFPSYTCTCLKGYAGNHCETKCVEPLGLENGNIANSQIAASSVRVTFLGLQHWVPELARLNRAGMVNAWTPSSNDDNPWIQVNLLRRMWVTGVVTQGASRLASHEYLKAFKVAYSLNGHEFDFIHDVNKKHKEFVGNWNKNAVHVNLFETPVEAQYVRLYPTSCHTACTLRFELLGCELNGCANPLGLKNNSIPDKQITASSSYKTWGLHLFSWNPSYARLDKQGNFNAWVAGSYGNDQWLQVDLGSSKEVTGIITQGARNFGSVQFVASYKVAYSNDSANWTEYQDPRTGSSKIFPGNWDNHSHKKNLFETPILARYVRILPVAWHNRIALRLELLGC", "glycan array binding signal (z-score)": -0.539}

// switching to the query binder
## Task Given SP16665A-bot-344-23-344 (Bacteroides ovatus) (protein) SDNEFPDFDYQTVYFANQYGLRTIELGESEFVDNTLDNQHKMVIKAAWGGGYTNRNNVVINFKVDESLCDNLYFKDTDQPLVPMPASYYTLASDRIAIPKGQIMAGVEVQLTDDFFADEKSISENYVIPLLMTNVQGADSILQGKPVVENPVLTNAGDWSILPQNFVLYAVKYVNPWHGEYLRRGIDHATVAGTSKDIIRHEQFVENDEVVNISTKSMKDNLLTLKTKDESGKDISYTVRLSFAEDGSCTVHSGSQNVVVSGSGKFVSKGEKNSLGGKDRNAIYLDYTVNLTDNNIQLATKDTLVLRTRNVYGGKSLEVVRK , state its recorded glycan array binding signal (z-score).
## Result -0.461
